These entries and their values trace back to the supplement of paper PMC9112550.

Hi there, I'd appreciate the recorded shrunken log2 fold change for every entry that follows.
# Test system: Escherichia coli TOP10;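 note: peptides expressed intracellularly from a pBAD plasmid library in pooled LB shake-flask culture, induced with 0.3% L-arabinose, DNA abundance read by NGS, three biological replicates, DESeq2 with apeglm shrinkage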
# METHOD: shrunken log2 fold change of peptide-encoding DNA abundance (4.5 h post-induction vs induction); higher = less antimicrobial activity (less host growth inhibition)
# CONDITION_DESCRIPTION: time post-induction: 4.5 h; library: site-saturation at positions 5, 18, 19, 20
One number for each entry.

{"columns": ["MACROMOLECULE_SEQUENCE", "SYSTEM_UNDER_TEST", "ASSAY_RESULT"],
 "data": [
  ["RRIRPRPPRLPRPRPRPDCTPRP", "Escherichia coli TOP10", -0.167],
  ["RRIRWRPPRLPRPRPRPMKIPRP", "Escherichia coli TOP10", -0.0129],
  ["RRIRARPPRLPRPRPRPMCPPRP", "Escherichia coli TOP10", 0.0408],
  ["RRIRDRPPRLPRPRPRPPKTPRP", "Escherichia coli TOP10", 0.257]
]}

Respectfully, I request shrunken log2 fold change for each entry included below.
1. RRIRNRPPRLPRPRPRPYYVPRP
2. RRIRHRPPRLPRPRPRPKRWPRP
3. RRIRGRPPRLPRPRPRPWVWPRP
4. RRIRWRPPRLPRPRPRPQKDPRP
5. RRIRPRPPRLPRPRPRPSHQPRP
6. RRIRKRPPRLPRPRPRPVVVPRP

1. -0.207
2. 0.293
3. 0.368
4. -0.154
5. 0.189
6. 0.212

Respectfully, I request shrunken log2 fold change for each entry included below.
1. RRIRPRPPRLPRPRPRPGYHPRP
2. RRIRKRPPRLPRPRPRPLNKPRP
3. RRIRMRPPRLPRPRPRPHITPRP
4. RRIRWRPPRLPRPRPRPGDSPRP

1. -0.506
2. -0.0644
3. -0.374
4. -0.163

Given the entry `RRIRKRPPRLPRPRPRPQEDPRP` , report its measured shrunken log2 fold change.
0.0977
